- Test system: NCI-H460 lung
- Protocol Description: NCI tumour cell line growth inhibition, 48 h
Property: TGI

See these solved cases before continuing.
{"Molecule": "C1=C2CCCC3=Cc4ccccc4OC23Oc2ccccc21", "TGI": "16.4 µM"}
{"Molecule": "NNC(=O)C(=O)N/N=C1\\CCC(=O)CC1C(=O)CCC(=O)Nc1ccc(Cl)cc1 (stereo unspecified)", "TGI": "> 100 µM"}
{"Molecule": "Cc1ccc(S(=O)(=O)Nc2nnc(S(N)(=O)=O)s2)cc1", "TGI": "> 100 µM"}
{"Molecule": "Cc1ccc(S(=O)(=O)c2ccccc2[N+](=O)[O-])cc1", "TGI": "> 100 µM"}
{"Molecule": "COc1cc2c(cc1OCCCCCCN1CCN(CC(=O)Nc3ccc(Cl)cc3C(=O)c3ccccc3Cl)CC1)N=CC1CCCN1C2=O (stereo unspecified)", "TGI": "0.334 µM"}

Hey, quick one: what's TGI for each of these?
1. NCc1cccc(O)c1O
2. c1ccc2c(c1)SCCCSCCSCCCS2

["> 100 µM", "> 100 µM"]

Hey, quick one: what's TGI for each of these?
1. CC(C)(C)C(=CS(=O)/N=C/c1ccccc1)C(C)(C)C (stereo unspecified)
2. COc1cc(C)c(C2NC(=O)c3ccccc3N2)cc1C (stereo unspecified)
3. CC(C)(C)OC(=O)NCCCn1c2c(c3ccccc3c1=O)C(=O)c1ccccc1-2
4. Cn1c(-c2ccc(/C=N/NC(=S)N/N=C/c3ccc(-c4c[n+]5ccsc5n4C)cc3)cc2)c[n+]2ccsc12

1: 73.2 µM; 2: 26.5 µM; 3: > 100 µM; 4: > 100 µM

====

Assign TGI to each entry below.
- System: OVCAR-8 ovarian
- Protocol Description: NCI tumour cell line growth inhibition, 48 h

See these solved cases before continuing.
{"Compound": "O=c1[nH]c2ccccc2n1CCCN1CCC(n2c(=O)[nH]c3cc(Cl)ccc32)CC1", "Result": "38.6 µM"}
{"Compound": "CCOC(=O)c1cc2c([N+](=O)[O-])c(N)ccc2s1", "Result": "> 100 µM"}
{"Compound": "NCC(O)CSCc1ccc(Cl)cc1 (stereo not given)", "Result": "> 100 µM"}
{"Compound": "COc1cc2cc(C(=O)N3CC(COS(C)(=O)=O)c4ccc(O)cc43)[nH]c2c(OC)c1OC (stereo not given)", "Result": "0.149 µM"}
{"Compound": "COc1ccc(C(SC2C(O)C(CO)OC2n2ccc(=O)[nH]c2=O)(c2ccccc2)c2ccc(OC)cc2)cc1 (stereo not given)", "Result": "45.5 µM"}
{"Compound": "CC(C)/C(Cl)=N\\OC(NC(=O)P(=O)(c1ccccc1)c1ccccc1)(C(F)(F)F)C(F)(F)F", "Result": "32 µM"}

Hey, quick one: what's TGI for each of these?
1. CC(=O)Nc1ccc(OC/C(N)=N/NC(=O)c2ccncc2)cc1
2. Cc1nc(Nc2ccccn2)sc1C(=O)/C=C/c1ccc(Cl)cc1
3. O=C1CCC(N2C(=O)c3ccccc3C2=O)C(=O)N1 (stereo not given)
4. O=[N+]([O-])c1cccc(N=Nc2c(O)c(S(=O)(=O)O)cc3cc(S(=O)(=O)O)ccc23)c1
5. c1ccc2c(c1)SCCCSCCSCCCS2
6. O=C(c1ccccc1)c1c(NCC(O)CN2CCOCC2)n(Cc2ccccc2)c(=O)n(Cc2ccccc2)c1=O (stereo not given)
7. COC(=O)C1C(O)C(C)C(O)C(C)C=C(C)C2=C3C(=C(C)C(=O)c4c(O)c(c(C)c(OC(C)=O)c43)NC(=O)C(C)=C/C=C\C(C)C(O)C(C)C1O)OCO2 (stereo not given)
8. O=C(Nn1c(-c2ccccc2)nc2ccccc2c1=O)c1ccccc1O

1: > 100 µM; 2: > 100 µM; 3: > 100 µM; 4: > 100 µM; 5: > 100 µM; 6: > 100 µM; 7: > 100 µM; 8: > 100 µM

Hey, quick one: what's TGI for each of these?
1. O=C(O)CCNCCCCNCCC(=O)O
2. C=CCO/N=C(\OC(=O)c1ccc([N+](=O)[O-])cc1)c1ccccc1
3. O=c1c(-c2ccccc2)c(SCCO)n(-c2ccccc2)c(=S)n1-c1ccccc1
4. CCOP(=O)(O)CN1CCNCCN(CP(=O)(O)OCC)CCNCC1
5. NNC(=O)C(=O)N/N=C1\CCC(=O)CC1C(=O)CCC(=O)Nc1ccc(Cl)cc1 (stereo not given)
6. O=C(N/N=C/C=C/c1ccccc1)c1ccccc1Nc1ccccc1C(=O)N/N=C/C=C/c1ccccc1

> 100 µM
> 100 µM
> 100 µM
> 100 µM
> 100 µM
> 100 µM

Reference source for all entries: PubChem BioAssay (NCI)
